- System: MEF A1-2A-BIM cells, caspase 3/7 luminescence, 3 h
- measurement-description: inducers of caspase signal in A1-dependent MEFs – cell-based, luminescence, retest, A1 inhibitor project, dose response (AID 2765)
Activity calls are given as the source filed them.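 The calls were made as follows: active = half-maximal concentration for the rise in caspase light signal at or below ten times the top tested dose; inconclusive = flat fit between 30% and 70% activity, or unreliable curve fit; inactive = the rest.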
Labels: active, inactive

{"molecule": "O=C1/C(=C\\c2c(NCCOCCO)nc3ccccn3c2=O)SC(=S)N1Cc1ccco1", "category-label": "inactive"}
{"molecule": "CC(=O)Nc1ccc(NC(=O)C(=O)NCC(c2ccco2)N2CCc3ccccc32)cc1 (centres undefined)", "category-label": "active"}
{"molecule": "CCOC(=O)/C(=C\\c1ccc(OC(F)F)cc1)C1=Nn2c(nnc2-c2ccc(Cl)cc2)SC1", "category-label": "active"}
{"molecule": "CN(Cc1ccc(F)cc1)C(=O)CNC(=O)C1CCCCC1", "category-label": "inactive"}
{"molecule": "CC(O)[C@H](NC(=O)C1(c2ccccc2)CCN(C(=O)OC(C)(C)C)CC1)C(=O)O (some centres undefined)", "category-label": "inactive"}
{"molecule": "O=C(CNc1cccc(S(=O)(=O)N2CCCC2)c1)Nc1cccc(C(F)(F)F)c1", "category-label": "inactive"}
{"molecule": "O=C(CCC(=O)c1cccs1)OCC(=O)c1ccccc1", "category-label": "inactive"}
{"molecule": "O=C(Nc1ccc2oc(-c3ccccc3F)nc2c1)c1ccccc1F", "category-label": "inactive"}
{"molecule": "NS(=O)(=O)c1ccc(CCNC(=O)CN2CCN(S(=O)(=O)c3ccccc3F)CC2)cc1", "category-label": "inactive"}
{"molecule": "COc1ccc(OC)c2[nH]c(C(=O)N3CCC(C(=O)O)CC3)cc12", "category-label": "inactive"}
{"molecule": "Cc1cc(S(=O)(=O)N2CCCOC2CNC(=O)C(=O)NCc2ccco2)ccc1F (centres undefined)", "category-label": "inactive"}
{"molecule": "O=C(C1=NN[C@@H]2C(=O)N(Cc3ccccc3)C(=O)[C@H]12)c1ccc(F)cc1", "category-label": "inactive"}
{"molecule": "O=C(CN1C(=O)c2ccccc2S1(=O)=O)NCCc1ccccc1", "category-label": "inactive"}
{"molecule": "COc1ccccc1CCNC(C)CCc1ccc(O)cc1 (centres undefined)", "category-label": "inactive"}
{"molecule": "O=C(c1ccccc1)c1n[nH]c(-c2ccccc2)cc1=O", "category-label": "inactive"}
{"molecule": "CCN(CC)S(=O)(=O)c1cc(NC(=O)C2Cc3ccccc3C(=O)O2)ccc1C (centres undefined)", "category-label": "inactive"}
{"molecule": "Cc1cccc(C)c1NC(=O)CSc1nc(C)c(CC(=O)c2ccc(Br)cc2)c(C)c1C#N", "category-label": "active"}
{"molecule": "CN(C(=O)c1ccc(NC(=O)C2CCCN(C(=O)OC(C)(C)C)C2)cc1)C1CC1 (centres undefined)", "category-label": "inactive"}
{"molecule": "Nc1ccc(N2CCN(Cc3ccccc3Cl)CC2)c(Cl)c1", "category-label": "inactive"}
{"molecule": "Cc1cccc(NC(=O)CSc2nnc(CNC(=O)c3ccc(S(=O)(=O)N(C)C)cc3)n2-c2ccc(F)cc2)c1", "category-label": "inactive"}
{"molecule": "Cc1ccc(NC(=O)c2cc(N3C(=O)C=CC3=O)ccc2N2CCOCC2)cc1Cl", "category-label": "inactive"}
{"molecule": "O=C(Cc1ccccc1)N1CCc2[nH]nc(-c3ccccc3)c2C1", "category-label": "inactive"}
{"molecule": "O=C(O)c1ccc2c(c1)C(=O)N(c1ccc(Cl)cn1)C2=O", "category-label": "inactive"}
{"molecule": "Cc1ccc(C(=O)Nc2nnc(C3=COCCO3)o2)cc1C", "category-label": "inactive"}
{"molecule": "CCOC(=O)CS(=O)(=O)c1nc(-c2ccccc2)cc(C(F)(F)F)n1", "category-label": "inactive"}
{"molecule": "CONC(=O)c1cc(OCC(F)(F)F)ccc1OCC(F)(F)F", "category-label": "inactive"}
{"molecule": "O=C(NC1CCCc2ccccc21)c1ccccc1OC(F)F (centres undefined)", "category-label": "inactive"}
{"molecule": "O=C(Nc1cc(Cl)ccc1N1CCOCC1)c1cccnc1", "category-label": "inactive"}
{"molecule": "COc1cc(OC)cc(C(=O)N[C@H](C(=O)OCC(=O)Nc2ccc(C)cc2C)C(C)C)c1", "category-label": "inactive"}
{"molecule": "CN(C(=O)CSc1ccncc1)C1CCCN(Cc2ccccc2F)C1 (centres undefined)", "category-label": "inactive"}
{"molecule": "CN1CCN(c2nccc3c2ncn3C)CC1", "category-label": "inactive"}
{"molecule": "O=C(CCNc1n[nH]c(=O)[nH]c1=O)N/N=C/c1ccc(C(F)(F)F)cc1", "category-label": "inactive"}
{"molecule": "O=C(O)CCN1C(=O)/C(=C\\c2ccncc2)SC1=S", "category-label": "inactive"}
{"molecule": "CCOc1ccccc1NC(=O)Nc1cc(OC)ccc1OC", "category-label": "inactive"}
{"molecule": "COCC(=O)NC(C)c1nc2ccccc2[nH]1 (centres undefined)", "category-label": "inactive"}
{"molecule": "CN(CC(=O)O)S(=O)(=O)c1ccc2oc3ccccc3c2c1", "category-label": "inactive"}
{"molecule": "COc1ccc(CNC(=O)CN(Cc2ccc(Cl)cc2)S(=O)(=O)c2ccccc2)cc1", "category-label": "inactive"}
{"molecule": "O=C1ON=C(c2ccc(Cl)cc2)/C1=C/c1ccc(O)cc1", "category-label": "inactive"}
{"molecule": "N#C/C(=C\\c1ccc(N2CCOCC2)o1)c1ccccc1", "category-label": "inactive"}
